pKb values by entry
# System: Spleen
# Procedure details: Inhibition of noradrenaline-induced contraction in rat spleen
# Assay type: functional
No unit in the answer, only the number.

Molecule	Reported
COc1cccc(OCCNCC2COC(c3ccccc3)(c3ccccc3)O2)c1 (racemic)	5.79
COc1ccccc1OCCNCC1CSC(c2ccccc2)(c2ccccc2)O1 (racemic)	8.44
COc1ccc(OCCNCC2COC(c3ccccc3)(c3ccccc3)O2)cc1OC (racemic)	6.01
CCOc1ccccc1OCCNCC1COC(c2ccccc2)(c2ccccc2)O1 (racemic)	6.92
COc1ccc(OCCNCC2COC(c3ccccc3)(c3ccccc3)O2)cc1 (racemic)	6.25

Ask | I have this molecule here, c1ccc(-c2ccc(OCCNCC3COC(c4ccccc4)(c4ccccc4)O3)cc2)cc1 (racemic) , and I need its recorded pKb.
Reply | 5.84

Ask | Would you kindly repeat that for COc1cccc(OC)c1OCCNCC1COC(c2ccccc2)(c2ccccc2)O1 (racemic) ?
Reply | 5.89

Ask | Would you kindly repeat that for c1ccc(OCCNCC2COC(c3ccccc3)(c3ccccc3)O2)cc1 (racemic) ?
Reply | 5.86

Ask | Would you kindly repeat that for COc1ccccc1OCCNCC1COC(c2ccccc2)(c2ccccc2)O1 (racemic) ?
Reply | 7.36

Ask | Would you kindly repeat that for COc1cccc(OCCNCC2COC(c3ccccc3)(c3ccccc3)O2)c1OC (racemic) ?
Reply | 5.85

Ask | Would you kindly repeat that for CC(C)Oc1ccccc1OCCNCC1COC(c2ccccc2)(c2ccccc2)O1 (racemic) ?
Reply | 7.25

Ask | Would you kindly repeat that for c1ccc(-c2cccc(OCCNCC3COC(c4ccccc4)(c4ccccc4)O3)c2)cc1 (racemic) ?
Reply | 6.21

Ask | Would you kindly repeat that for c1ccc(-c2ccccc2OCCNCC2COC(c3ccccc3)(c3ccccc3)O2)cc1 (racemic) ?
Reply | 5.47

----------
# System name: UniProt:P25100
# Sequence (P25100 whole entry): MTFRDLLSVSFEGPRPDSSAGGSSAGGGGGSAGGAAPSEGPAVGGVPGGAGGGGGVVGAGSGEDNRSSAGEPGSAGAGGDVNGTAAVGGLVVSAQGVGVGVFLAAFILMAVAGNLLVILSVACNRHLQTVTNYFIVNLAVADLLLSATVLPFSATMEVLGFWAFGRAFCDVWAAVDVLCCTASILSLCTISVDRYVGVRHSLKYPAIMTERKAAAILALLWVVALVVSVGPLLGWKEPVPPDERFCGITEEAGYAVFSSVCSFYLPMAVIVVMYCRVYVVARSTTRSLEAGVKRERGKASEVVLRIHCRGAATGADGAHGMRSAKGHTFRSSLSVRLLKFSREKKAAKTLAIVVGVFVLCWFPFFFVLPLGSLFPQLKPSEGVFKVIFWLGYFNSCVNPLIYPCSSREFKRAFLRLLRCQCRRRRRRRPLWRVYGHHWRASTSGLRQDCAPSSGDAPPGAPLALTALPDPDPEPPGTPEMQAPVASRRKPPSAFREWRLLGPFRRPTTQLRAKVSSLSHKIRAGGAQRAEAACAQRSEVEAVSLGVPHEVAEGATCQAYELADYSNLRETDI
# Procedure details: Displacement of [3H]prazosin from human Alpha-1D adrenergic receptor expressed in CHO cells
# Format: cell-based
Ki values by entry

Completed entries (count: 2):
Compound	Ki
COc1cc(OC)cc(OCCNCC2COC(c3ccccc3)(c3ccccc3)O2)c1 (racemic)	> 1 µM
c1ccc(-c2ccc(OCCNCC3COC(c4ccccc4)(c4ccccc4)O3)cc2)cc1 (racemic)	> 1 µM

Ask | I have this compound here, c1ccc(-c2cccc(OCCNCC3COC(c4ccccc4)(c4ccccc4)O3)c2)cc1 (racemic) , and I need its recorded Ki.
Reply | > 1 µM

FYI, the data here is from ChEMBL document CHEMBL1155434.
